Molecular target: UniProt:P30542
Sequence (P30542 whole entry): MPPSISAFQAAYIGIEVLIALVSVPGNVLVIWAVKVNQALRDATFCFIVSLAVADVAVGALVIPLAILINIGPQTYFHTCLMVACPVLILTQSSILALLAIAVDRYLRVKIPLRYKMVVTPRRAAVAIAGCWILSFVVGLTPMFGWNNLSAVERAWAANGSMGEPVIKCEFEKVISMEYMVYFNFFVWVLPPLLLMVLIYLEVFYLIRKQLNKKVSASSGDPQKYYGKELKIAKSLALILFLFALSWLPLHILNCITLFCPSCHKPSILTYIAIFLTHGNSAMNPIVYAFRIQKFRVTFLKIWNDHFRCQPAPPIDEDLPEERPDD
Experiment: Binding affinity to human adenosine A1A receptor expressed in human HEK293 cell membrane at 10 uM by radioligand inhibition assay
Assay type: cell membranes
Give inhibition for every item shown.
Entry rule: numbers only, all in %.

Field inhibition (entry CNC(=O)[C@@]12C[C@@H]1[C@@H](n1cnc3c(NCCc4ccc(O)c(O)c4)nc(C#Cc4ccc(Br)s4)nc31)[C@H](O)[C@@H]2O ) reads 31

Entry CNC(=O)[C@@]12C[C@@H]1[C@@H](n1cnc3c(NCCc4ccc(O)c(O)c4)nc(C#Cc4ccc(Cl)s4)nc31)[C@H](O)[C@@H]2O ; inhibition = 25

CNC(=O)[C@@]12C[C@@H]1[C@@H](n1cnc3c(NCCc4ccc(O)c(OC)c4)nc(C#Cc4ccc(F)s4)nc31)[C@H](O)[C@@H]2O has a reported inhibition of 2

Recorded result, CNC(=O)[C@@]12C[C@@H]1[C@@H](n1cnc3c(NCCc4ccc(O)c(OC)c4)nc(C#Cc4ccco4)nc31)[C@H](O)[C@@H]2O , inhibition: 9

Note to self: inhibition recorded for CCOC(=O)[C@@]12C[C@@H]1[C@@H](n1cnc3c(NCCc4ccc(O)c(OC)c4)nc(C#Cc4ccc(Cl)s4)nc31)[C@H](O)[C@@H]2O was 0

Form field inhibition, entry CNC(=O)[C@@]12C[C@@H]1[C@@H](n1cnc3c(NCCc4ccc(O)c(OC)c4)nc(C#Cc4cccs4)nc31)[C@H](O)[C@@H]2O : 12
